Parameter: inhibition at 50 µM. Scope: all listed entries.
- Experimental system: PI-3 kinase γ (Homo sapiens)
- Test summary: PI3Kγ inhibitory activity, PI3-kinase HTRF assay (inhibition ratio)
- Type: biochemical
- Experimental parameters: 0.5 h; PI3Kγ, compound at 50 μM

Recorded inhibition at 50 µM, per entry:
- Molecule: "COc1cccc(N2CCn3nc(NC(C)=O)cc32)c1 [Compound I-139]"
  inhibition at 50 µM: "≥ 95%"
- Molecule: "CNC(=O)Nc1cc2n(n1)CCN2c1ccc2c(c1)CCC2=O [Compound I-193]"
  inhibition at 50 µM: "≥ 95%"

Look up inhibition at 50 µM for this molecule: CNC(=O)Nc1nc2c(s1)CN(c1cc(Oc3ccccc3)nc(OC(C)(C)C)n1)CC2 [Compound I-150]
≥ 95%

Look up inhibition at 50 µM for this molecule: CNC(=O)Nc1cc2n(n1)CCN2c1cc(C#CC2CCN(C(=O)OC(C)(C)C)CC2)cc(C(=O)N2CCOCC2)c1 [Compound I-250]
≥ 95%

====

- Experimental system: PI-3 kinase γ (Homo sapiens)
- Test summary: PI3Kγ inhibitory activity, PI3-kinase HTRF assay (inhibition ratio)
- Format: biochemical
- Experimental parameters: 0.5 h; PI3Kγ, compound at 50 μM
- Procedure: The PI3Kγ inhibitory activity of a compound was evaluated using PI3-kinase HTRF™ assay (Millipore) according to the following procedure: […] 5 μL of a detection reagent containing a europium-labeled anti-GST antibody, the GST-tagged PH domain, and allophycocyanin-labeled streptavidin was added thereto. After 18 hours, HTRF (excitation wavelength: 330 nm, measured wavelengths: 620 nm and 665 nm) was measured. […]
Quantity kind: inhibition at 50 µM (%)

- Compound: "CNC(=O)Nc1cc2n(n1)CCN2c1cc(/C=C/c2ccccc2)cc(C(=O)N2CCOCC2)c1 [Compound I-225]"
  inhibition at 50 µM, %: 93
- Compound: "CNC(=O)Nc1cc2n(n1)CCN2c1cc(C#CCOC)cc(C(=O)N2CCOCC2)c1 [Compound I-233]"
  inhibition at 50 µM, %: 84

====

- Experimental system: PI-3 kinase γ (Homo sapiens, UniProt P48736)
- Sequence (P48736 whole entry): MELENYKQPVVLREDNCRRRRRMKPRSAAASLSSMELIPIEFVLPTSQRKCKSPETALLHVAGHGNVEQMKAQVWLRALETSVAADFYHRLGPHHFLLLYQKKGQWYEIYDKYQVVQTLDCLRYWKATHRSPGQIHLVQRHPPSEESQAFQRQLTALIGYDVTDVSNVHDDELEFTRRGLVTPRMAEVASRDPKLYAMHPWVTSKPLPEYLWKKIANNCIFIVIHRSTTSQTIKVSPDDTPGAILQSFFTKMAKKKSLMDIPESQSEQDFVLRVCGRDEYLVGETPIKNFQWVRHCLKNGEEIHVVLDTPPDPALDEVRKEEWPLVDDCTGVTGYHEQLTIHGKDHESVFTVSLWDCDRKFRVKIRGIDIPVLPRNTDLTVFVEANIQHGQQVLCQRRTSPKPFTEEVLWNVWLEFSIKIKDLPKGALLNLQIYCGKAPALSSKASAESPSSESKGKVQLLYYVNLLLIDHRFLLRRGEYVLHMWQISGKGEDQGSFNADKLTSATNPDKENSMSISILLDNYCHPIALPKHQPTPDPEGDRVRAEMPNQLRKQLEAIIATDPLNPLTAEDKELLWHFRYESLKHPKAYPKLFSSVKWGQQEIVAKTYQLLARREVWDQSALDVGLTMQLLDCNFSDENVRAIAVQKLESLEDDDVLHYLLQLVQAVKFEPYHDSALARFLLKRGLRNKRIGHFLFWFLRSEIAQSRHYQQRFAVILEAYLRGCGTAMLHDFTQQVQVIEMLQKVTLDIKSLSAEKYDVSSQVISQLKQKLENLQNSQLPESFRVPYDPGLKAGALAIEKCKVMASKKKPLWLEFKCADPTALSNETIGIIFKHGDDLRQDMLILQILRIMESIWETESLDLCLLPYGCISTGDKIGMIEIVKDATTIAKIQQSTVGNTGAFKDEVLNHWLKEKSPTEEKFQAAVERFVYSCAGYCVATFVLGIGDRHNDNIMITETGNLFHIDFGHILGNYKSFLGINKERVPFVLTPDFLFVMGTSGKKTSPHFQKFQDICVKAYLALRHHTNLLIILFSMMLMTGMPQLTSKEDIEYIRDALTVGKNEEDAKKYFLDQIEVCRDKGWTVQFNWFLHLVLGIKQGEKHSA
- Test summary: PI3Kγ inhibitory activity, PI3-kinase HTRF assay (inhibition ratio)
- Format: biochemical
- Experimental parameters: 0.5 h; compound at 10 μmol/L
- Experimental: The PI3Kγ inhibitory activity of a compound was evaluated using PI3-kinase HTRF™ assay (Millipore) according to the following procedure: […] 5 μL of a detection reagent containing a europium-labeled anti-GST antibody, the GST-tagged PH domain, and allophycocyanin-labeled streptavidin was added thereto. After 18 hours, HTRF (excitation wavelength: 330 nm, measured wavelengths: 620 nm and 665 nm) was measured. […]
Quantity kind: inhibition at 10 µM (%)

- Molecule: "CC(C)NC(=O)c1cc(C(=O)Nc2cc3n(n2)CCN3c2ccc3c(c2)CCN(C)C3=O)cs1 [Compound I-419]"
  Assay value: 83
- Molecule: "CN1CCc2cc(N3CCn4nc(NC(=O)NCCC(=O)OC(C)(C)C)cc43)ccc2C1=O [Compound I-530]"
  Assay value: 92
- Molecule: "COc1cc(N2CCc3nc(NC(=O)NCC4(C(=O)NC(C)C)CC4)sc3C2)nc(OC)n1 [Compound I-546]"
  Assay value: 86
- Molecule: "Cc1ccsc1C(=O)Nc1cc2n(n1)CCN2c1ccc2c(c1)CCN(C)C2=O [Compound I-444]"
  Assay value: 84
- Molecule: "CN1CCc2cc(N3CCn4nc(NC(=O)c5csc(C(=O)NC(C)(C)C)c5)cc43)ccc2C1=O [Compound I-438]"
  Assay value: 86
- Molecule: "CN1CCc2cc(N3CCn4nc(NC(=O)NCC(=O)O)cc43)ccc2C1=O [Compound I-522]"
  Assay value: 94
- Molecule: "CC(C)CC(=O)Nc1ncc(C(=O)Nc2cc3n(n2)CCN3c2ccc3c(c2)CCN(C)C3=O)s1 [Compound I-533]"
  Assay value: 95
- Molecule: "CN1CCc2cc(N3CCn4nc(NC(=O)Cc5ccc(F)cc5)cc43)ccc2C1=O [Compound I-342]"
  Assay value: 92
- Molecule: "CN1CCc2cc(N3CCn4nc(NC(=O)Nc5ccsc5)cc43)ccc2C1=O [Compound I-368]"
  Assay value: 95
- Molecule: "CN1CCc2cc(N3CCn4nc(NC(=O)c5cc6cccnc6[nH]5)cc43)ccc2C1=O [Compound I-385]"
  Assay value: 91
- Molecule: "COc1cc(N2CCc3nc(NC(=O)C4CCCCC4)sc3C2)nc(OC)n1 [Compound I-552]"
  Assay value: 88
- Molecule: "CN1CCc2cc(N3CCn4nc(NC(=O)c5ccccc5)cc43)ccc2C1=O [Compound I-324]"
  Assay value: 93
- Molecule: "CN1CCc2cc(N3CCn4nc(NC(=O)c5ccc(NC(=O)OC(C)(C)C)cc5)cc43)ccc2C1=O [Compound I-480]"
  Assay value: 86

====

- Experimental system: PI-3 kinase γ (Homo sapiens, UniProt P48736)
- Test summary: PI3Kγ inhibitory activity, PI3-kinase HTRF assay (inhibition ratio)
- Assay type: biochemical
- Experimental parameters: 0.5 h; compound at 10 μmol/L
Quantity kind: inhibition at 10 µM

- Compound smiles: "CN1CCc2cc(N3CCn4nc(NC(=O)c5csc(C(=O)NCC(C)(C)C)c5)cc43)ccc2C1=O"
  Experimental system: "PI-3 kinase γ (Homo sapiens, UniProt P48736)"
  inhibition at 10 µM: "≥ 95%"

Look up inhibition at 10 µM for this compound: CC(C)Oc1cccc(C(=O)Nc2cc3n(n2)CCN3c2ccc3c(c2)CCN(C)C3=O)c1
≥ 95%

Look up inhibition at 10 µM for this compound: CN1CCc2cc(N3CCn4nc(NC(=O)c5cc(O)no5)cc43)ccc2C1=O
≥ 95%

====

Parameter: inhibition at 50 µM. Scope: all listed entries.
- Experimental system: PI-3 kinase γ (Homo sapiens, UniProt P48736)
- Test summary: PI3Kγ inhibitory activity, PI3-kinase HTRF assay (inhibition ratio)
- Assay type: biochemical
- Experimental parameters: 0.5 h; PI3Kγ, compound at 50 μM

Recorded inhibition at 50 µM, per entry:
- Compound: "CNC(=O)Nc1cc2n(n1)CCN2c1cccc(S(C)(=O)=O)c1 [Compound I-191]"
  Experimental system: "PI-3 kinase γ (Homo sapiens, UniProt P48736)"
  Assay value: "≥ 95%"
- Compound: "COc1cc(N2CCc3nc(NC(=O)NCCC(=O)N4CCOCC4)sc3C2)nc(OC)n1 [Compound I-207]"
  Experimental system: "PI-3 kinase γ (Homo sapiens, UniProt P48736)"
  Assay value: "≥ 95%"
- Compound: "CN(C)C(=O)CCC(=O)Nc1cc2n(n1)CCN2c1cccc(Cl)c1 [Compound I-234]"
  Experimental system: "PI-3 kinase γ (Homo sapiens, UniProt P48736)"
  Assay value: "≥ 95%"
- Compound: "CC(C)(C)OC(=O)N1CCn2nc(NC(=O)NCC(=O)O)cc21 [Compound I-59]"
  Experimental system: "PI-3 kinase γ (Homo sapiens, UniProt P48736)"
  Assay value: "94%"
- Compound: "CNC(=O)Nc1cc2n(n1)CCN2c1cc(Br)cc(C(=O)NCCC(=O)O)c1 [Compound I-186]"
  Experimental system: "PI-3 kinase γ (Homo sapiens, UniProt P48736)"
  Assay value: "89%"

Look up inhibition at 50 µM for this compound: O=C(Nc1cc2n(n1)CCN2c1cccc(Cl)c1)c1nccs1 [Compound I-245]
76%

Look up inhibition at 50 µM for this compound: CNC(=O)Nc1cc2n(n1)CCN2c1cc(C(=O)N2CCOCC2)cc(-c2ccc(N)cc2)c1 [Compound I-210]
≥ 95%

Look up inhibition at 50 µM for this compound: CNC(=O)Nc1cc2n(n1)CCN2c1cc(Nc2ccccc2)cc(C(=O)OC)c1 [Compound I-162]
≥ 95%

====

- Experimental system: PI-3 kinase γ (Homo sapiens)
- Test summary: PI3Kγ inhibitory activity, PI3-kinase HTRF assay (inhibition ratio)
- Format: biochemical
- Experimental parameters: 0.5 h; compound at 10 μmol/L
Quantity kind: inhibition at 10 µM (%)

- Compound: "CC(=O)Nc1nc2ccn(-c3cccc(Cl)c3)c2s1 [Compound I-471]"
  Experimental system: "PI-3 kinase γ (Homo sapiens)"
  Quantity kind: "inhibition at 10 µM"
  Assay value: 91
- Compound: "COc1cccc(NC(=O)Nc2nc3c(s2)CN(c2cc(OC)nc(OC)n2)CC3)c1 [Compound I-295]"
  Experimental system: "PI-3 kinase γ (Homo sapiens)"
  Quantity kind: "inhibition at 10 µM"
  Assay value: 93
- Compound: "COc1cc(N2CCc3nc(NC(=O)Nc4cccs4)sc3C2)nc(OC)n1 [Compound I-296]"
  Experimental system: "PI-3 kinase γ (Homo sapiens)"
  Quantity kind: "inhibition at 10 µM"
  Assay value: 88
- Compound: "CN1CCc2cc(N3CCn4nc(NC(=O)Nc5cccs5)cc43)ccc2C1=O [Compound I-367]"
  Experimental system: "PI-3 kinase γ (Homo sapiens)"
  Quantity kind: "inhibition at 10 µM"
  Assay value: 86
- Compound: "CN1CCc2cc(N3CCn4nc(NC(=O)c5ccc(C(N)=O)s5)cc43)ccc2C1=O [Compound I-404]"
  Experimental system: "PI-3 kinase γ (Homo sapiens)"
  Quantity kind: "inhibition at 10 µM"
  Assay value: 78
- Compound: "Nc1cc2n(n1)CCN2c1ccc2cnccc2c1 [Compound I-316]"
  Experimental system: "PI-3 kinase γ (Homo sapiens)"
  Quantity kind: "inhibition at 10 µM"
  Assay value: 75
- Compound: "CC(C)NC(=O)c1ccccc1NC(=O)Nc1nc2c(s1)CN(C(=O)c1ccc(O)cc1)CC2 [Compound I-550]"
  Experimental system: "PI-3 kinase γ (Homo sapiens)"
  Quantity kind: "inhibition at 10 µM"
  Assay value: 81

Each recorded value in this set is attributed to patent US20110230472A1.
